TARGET_UNDER_TEST: DYRK1A kinase (Homo sapiens, UniProt Q13627)
ASSAY: DYRK1A kinase activity (Ser/Thr 18 peptide Z-lyte FRET assay);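 further: kinase activity read as coumarin/fluorescein emission ratio after development step, with unphosphorylated and phosphorylated peptide forms setting 0% and 100% controls, values from dose-response curves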
Format: biochemical
RUN_CONDITIONS: recombinant DYRK1A, 30 μM ATP, one hour at room temperature
MEASURE_NAME: EC50 (nM)

# COMPOUND, EXPERIMENTAL_RESULT
data = [
    ("CC(C)CN1CCC(C(=O)Nc2cc3nc(-c4cnn(C)c4)ccc3cn2)CC1 [Compound 16]", 40),
    ("Cn1cc(-c2ccc3cnc(NC(=O)c4ccc5nccnc5c4)nc3c2)cn1 [Compound 1123]", 13),
    ("Cn1ncc(-c2ccc3cnc(NC(=O)C4CC5(C4)CN(CCF)C5)cc3n2)c1CN1CCCCC1 [Compound 280]", 150),
    ("CCN(CC)CC(=O)Nc1cc2cc(-c3cnn(C)c3CN3CCCCC3)cnc2cn1 [Compound 3003]", 67),
    ("Cn1cc(-c2cnc3cnc(NC(=O)C4CCN(Cc5ncco5)CC4)cc3c2)cn1 [Compound 2816]", 24),
    ("CN1CCC(Oc2ccc(C(=O)Nc3cc4nc(-c5cnn(C)c5)ccc4cn3)cc2)CC1 [Compound 145]", 5),
    ("O=C(Nc1cc2nc(-c3cncc(NC4CCNCC4)n3)ccc2cn1)C1CCOCC1 [Compound 877]", 16),
    ("CNC(=O)c1ccc(C(=O)Nc2cc3nc(-c4cn(C)nn4)ccc3cn2)cn1 [Compound 372]", 67),
    ("CN1CCC(c2nc(C(=O)Nc3cc4nc(-c5cnn(C)c5)ccc4cn3)co2)CC1 [Compound 242]", 60),
    ("Cn1cncc1-c1cnc2cnc(NC(=O)c3cccc(CN4CCCC4)c3)cc2c1 [Compound 3259]", 24),
    ("O=C(Nc1cc2cc(-c3cncc(NC4CCNCC4)n3)ncc2cn1)C1CCOCC1 [Compound 4504]", 4),
    ("CN(C)Cc1ccc(C(=O)Nc2cc3cc(-c4cnn(C)c4)cnc3cn2)cc1 [Compound 2890]", 35),
    ("CC(C)n1cc(C(=O)Nc2ncc3ccc(-c4cncc(NC5CCN(C)CC5)n4)cc3n2)cn1 [Compound 1813]", 2),
    ("Nc1cncc(-c2ccc3cnc(NC(=O)c4ccc(OC5CCNCC5)cc4)nc3c2)c1 [Compound 1710]", 2),
    ("Cc1ncc(-c2ccc3cnc(NC(=O)C(C)N4CCCC4)cc3n2)n1C (centres unmarked) [Compound 4544]", 33),
    ("CO[C@H]1CC[C@H](C(=O)Nc2cc3cc(-c4nnc(C)s4)ncc3cn2)CC1 [Compound 4332]", 48),
    ("Cn1cc(-c2ccc3cnc(NC(=O)C4CCN(Cc5ncccn5)CC4)cc3n2)cn1 [Compound 99]", 9),
]
